Tested on: Jurkat (clone E6-1) cells with NFAT luciferase reporter
Test: Jurkat reporter assay (NFAT Luciferase)
Assay type: cell-based
Settings: Homo sapiens; Jurkat NFAT luciferase reporter cells, anti-CD3 stimulation, 6 hr; read-out: Jurkat NFAT EC50
property-measured: EC50

Below are worked cases with known answers.
- compound: "CCOCCNCc1cc(C(F)(F)F)c2oc(-c3cccc(-c4ccc(F)cc4-c4nncn4C)c3)nc2c1 [FI-2]"
  EC50: "< 200 nM"
- compound: "Cn1cnnc1-c1ccccc1-c1cccc(-c2nc3cc(CN4CCC5(CC5)C4)cc(C(F)(F)F)c3[nH]2)c1 [ACF-1]"
  EC50: "1000 to 10000 nM"

Turning to the following compound.
Consider CCN(CC[C@@H](O)C(F)(F)F)Cc1cc(C(F)(F)F)c2oc(-c3cccc(-c4ccc(F)cc4-c4nncn4C)c3)nc2c1 [CR-2] . Its measured EC50 is 200 to 1000 nM

###

Test system: Jurkat (clone E6-1) cells with NFAT luciferase reporter
Experiment: Jurkat reporter assay (NFAT Luciferase)
Type: cell-based
Conditions: Homo sapiens; Jurkat NFAT luciferase reporter cells, anti-CD3 stimulation, 6 hr; read-out: Jurkat NFAT EC50
pEC50: −log10 of the molar value.
property-measured: pEC50

- molecule: "C[C@H]1CCCN(Cc2cc(C(F)(F)F)c3oc(-c4cccc(-c5ccccc5-c5nncn5C)c4)nc3c2)C1 [Example Q-3]"
  result: "5.00 to 6.00"
- molecule: "COc1cc(CO)cc2nc(-c3cccc(-c4ccc(F)cc4-c4nncn4C)c3)oc12 [DW-3]"
  result: "4.30 to 5.00"
- molecule: "Cn1cnnc1-c1ccccc1-c1cccc(-c2nc3cc(CN[C@@H]4CCC[C@H]4O)cc(C(F)(F)F)c3o2)c1 [Example N-1]"
  result: "5.00 to 6.00"
- molecule: "COCCNCc1cc(C)c2oc(-c3cc(-c4ccc(F)cc4-c4nncn4C)cc(C4CC4)n3)nc2c1 [AEZ-1]"
  result: "> 6.70"
- molecule: "Cn1cnnc1-c1cc(F)ccc1-c1cccc(-c2nc3cc(CNCC(C)(C)O)ccc3o2)c1 [AO-2]"
  result: "6.00 to 6.70"

Turning to the following molecule.
Consider Cc1c(F)c(CNCC(C)(C)O)cc2nc(-c3cccc(-c4ccc(F)cc4-c4nncn4C)c3)oc12 [AHK-4] . Its measured pEC50 is > 6.70

###

Molecular target: Recombinant human c-Cbl (aa 47-435) (Homo sapiens, UniProt P22681)
Sequence (P22681 47-435): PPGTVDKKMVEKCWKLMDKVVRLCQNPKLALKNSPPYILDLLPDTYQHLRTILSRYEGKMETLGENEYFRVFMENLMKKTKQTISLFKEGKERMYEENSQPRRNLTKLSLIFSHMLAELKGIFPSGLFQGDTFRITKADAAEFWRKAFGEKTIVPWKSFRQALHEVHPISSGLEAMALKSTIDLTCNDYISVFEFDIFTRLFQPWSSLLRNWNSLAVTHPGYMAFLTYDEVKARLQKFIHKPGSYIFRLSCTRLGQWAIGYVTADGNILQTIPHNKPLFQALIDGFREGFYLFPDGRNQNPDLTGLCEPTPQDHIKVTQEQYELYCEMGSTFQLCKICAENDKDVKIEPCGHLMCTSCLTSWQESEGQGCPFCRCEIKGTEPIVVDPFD
Test: c-Cbl Biochemical Assay (TR-FRET)
Details: hc-Cbl Biochemical Assay (TR-FRET); read-out: TR-FRET hcCbl IC50
pIC50: −log10 of the molar value.
// pIC50 lookup, one value per entry

Below are worked cases with known answers.
- molecule: "Cn1cnnc1-c1cc(F)ccc1-c1cccc(-c2nc3cc(CNCC4CCC4)cc(C4CC4)c3o2)c1"
  pIC50: "> 6.70"
- molecule: "C[C@H]1CCCN(Cc2cc(C(F)(F)F)c3[nH]c(-c4cccc(-c5ccccc5-c5nncn5C)c4)nc3c2)C1"
  pIC50: "4.30 to 5.00"
- molecule: "CC(NCC1(O)CCC1)c1cc(C(F)(F)F)c2oc(-c3cccc(-c4ccc(F)cc4-c4nncn4C)c3)nc2c1 (stereo not drawn)"
  pIC50: "> 6.70"
- molecule: "CC(c1cc(C(F)(F)F)c2[nH]c(-c3cccc(C4(Cc5nncn5C)COC4)c3)nc2c1)N1CCC2(CC2)C1 (stereo not drawn)"
  pIC50: "4.30 to 5.00"
- molecule: "Cn1cnnc1-c1cc(F)ccc1-c1cccc(-c2nc3cc(CNCC(C)(C)O)ccc3o2)c1"
  pIC50: "5.00 to 6.00"

Consider COC[C@H](C)NCc1cc(C)c2oc(-c3cccc(-c4ccc(F)cc4-c4nncn4C)c3)nc2c1 . Its measured pIC50 is > 6.70

###

// IC50 lookup, one value per entry
Target: Recombinant human Cbl-b (aa 36-427) (Homo sapiens, UniProt Q13191)
Sequence (Q13191 36-427): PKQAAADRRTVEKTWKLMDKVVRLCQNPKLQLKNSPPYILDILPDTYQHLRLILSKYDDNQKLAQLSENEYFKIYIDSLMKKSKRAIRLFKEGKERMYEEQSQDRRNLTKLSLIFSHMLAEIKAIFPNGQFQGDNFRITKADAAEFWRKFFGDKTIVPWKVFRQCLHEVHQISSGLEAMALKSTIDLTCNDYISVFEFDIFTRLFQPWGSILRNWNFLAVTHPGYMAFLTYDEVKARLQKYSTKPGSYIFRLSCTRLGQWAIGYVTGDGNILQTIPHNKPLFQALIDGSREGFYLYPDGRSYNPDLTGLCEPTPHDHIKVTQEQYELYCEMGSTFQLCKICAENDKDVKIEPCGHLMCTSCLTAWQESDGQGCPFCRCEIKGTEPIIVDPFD
Experiment: Cbl-b Biochemical Assay (TR-FRET)
Conditions: read-out: TR-FRET hCbl-b IC50

Below are worked cases with known answers.
- compound: "COCCNCc1cc(C)c2oc(-c3cc(-c4ccc(F)cc4-c4nncn4C)cc(C4CC4)n3)nc2c1"
  result: "< 200 nM"
- compound: "Cn1cnnc1CC1(c2cccc(-c3nc4cc(C(=O)N5CCC6(CC6)C5)cc(C(F)(F)F)c4[nH]3)c2)COC1"
  result: "10000 to 50000 nM"
- compound: "Cn1cnnc1-c1cc(F)ccc1-c1cccc(-c2nc3cc(CO)cc(C(F)(F)F)c3o2)c1"
  result: "< 200 nM"
- compound: "Cn1cnnc1-c1cc(F)ccc1-c1cccc(-c2nc3ccc(CN[C@@H]4CCC[C@@H]4O)cc3s2)c1"
  result: "1000 to 10000 nM"

Given the compound C[C@H]1CCCN(Cc2cc(C(F)(F)F)c3[nH]c(-c4cccc(-c5ccc(F)cc5-c5nncn5C)c4)nc3c2)C1 and test system Recombinant human Cbl-b (aa 36-427) (Homo sapiens, UniProt Q13191), the measured IC50 is < 200 nM

Given the compound Cn1cnnc1-c1cc(F)ccc1-c1cccc(-c2nc3cc(CNCC4(C#N)CCOCC4)cc(C(F)(F)F)c3o2)c1 and test system Recombinant human Cbl-b (aa 36-427) (Homo sapiens, UniProt Q13191), the measured IC50 is < 200 nM

###

// pEC50 lookup, one value per entry
Tested on: Jurkat (clone E6-1) cells with NFAT luciferase reporter
Test: Jurkat reporter assay (NFAT Luciferase)
Assay type: cell-based
Conditions: Homo sapiens; Jurkat NFAT luciferase reporter cells, anti-CD3 stimulation, 6 hr; read-out: Jurkat NFAT EC50
pEC50: −log10 of the molar value.

- structure-notation: "Cn1cnnc1-c1cc(F)ccc1-c1cccc(-c2nc3cc(CN4CC[C@H](O)C4)cc(C(F)(F)F)c3o2)c1"
  pEC50: "5.00 to 6.00"
- structure-notation: "O[C@H]1CCC[C@H]1NCc1cc(C(F)(F)F)c2oc(-c3cccc(-c4ccc(F)cc4-c4nnco4)c3)nc2c1"
  pEC50: "6.00 to 6.70"

Consider Cn1cnnc1-c1cc(F)ccc1-c1cccc(-c2nc3cc(CO)cc(C(F)F)c3o2)c1 . Its measured pEC50 is 5.00 to 6.00

Consider Cn1cnnc1-c1cc(F)ccc1-c1cccc(-c2nc3cc(CNCC4(O)COC4)cc(C(F)(F)F)c3o2)c1 . Its measured pEC50 is 6.00 to 6.70

Consider Cn1cnnc1-c1cc(F)ccc1-c1cccc(-c2nc3cc(CNCC(C)(C)O)cc(C(F)(F)F)c3o2)c1 . Its measured pEC50 is 6.00 to 6.70

Consider COCCNCc1ccc2oc(-c3cc(-c4ccc(C#N)cc4-c4nncn4C)cc(C4CC4)n3)nc2c1 . Its measured pEC50 is 6.00 to 6.70

Consider Cc1cc(CN(C)CC2(O)CCC2)cc2nc(-c3cc(-c4ccc(F)cc4-c4nncn4C)cc(C4CC4)n3)oc12 . Its measured pEC50 is 6.00 to 6.70

###

Biological target: Recombinant human Cbl-b (aa 36-427) (Homo sapiens, UniProt Q13191)
Assay: Cbl-b Biochemical Assay (TR-FRET)
Details: read-out: TR-FRET hCbl-b IC50
property-measured: IC50

- molecule: "CN(Cc1cc(C(F)(F)F)c2[nH]c(-c3cccc(-c4ccc(F)cc4-c4nncn4C)c3)nc2c1)[C@@H]1CCC[C@@H]1O"
  IC50: "< 0.2 µM"
- molecule: "Cn1cnnc1CC1(c2cccc(-c3cc(C(F)(F)F)cn(CCN4CC(O)C4)c3=O)c2)COC1"
  IC50: "10 to 50 µM"
- molecule: "COCCNCc1cc(C(F)(F)F)c2oc(-c3cc(-c4ccc(F)cc4-c4nncn4C)cc(C4CC4)c3)nc2c1"
  IC50: "< 0.2 µM"
- molecule: "Cn1cnnc1-c1cc(F)ccc1-c1cccc(-c2nc3cc(CNCC4CCC4)cc(C4CC4)c3o2)c1"
  IC50: "< 0.2 µM"

Given the molecule CN(C)CC(=O)NCc1cc(C(F)(F)F)c2oc(-c3cccc(-c4ccc(F)cc4-c4nncn4C)c3)nc2c1 and test system Recombinant human Cbl-b (aa 36-427) (Homo sapiens, UniProt Q13191), the measured IC50 is < 0.2 µM

Given the molecule Cn1cnnc1-c1cc(F)ccc1-c1cc(-c2nc3cc(CO)c(F)c(F)c3o2)nc(C2CC2)c1 and test system Recombinant human Cbl-b (aa 36-427) (Homo sapiens, UniProt Q13191), the measured IC50 is 0.2 to 1 µM

Given the molecule Cn1cnnc1-c1cc(F)ccc1-c1cccc(-c2nc3cc(CNCC(C)(C)O)cc(C(F)(F)F)c3o2)c1 and test system Recombinant human Cbl-b (aa 36-427) (Homo sapiens, UniProt Q13191), the measured IC50 is < 0.2 µM

Given the molecule Cn1cnnc1CC1(c2cccc(-c3nc4cccc(C5CC5)c4[nH]3)c2)COC1 and test system Recombinant human Cbl-b (aa 36-427) (Homo sapiens, UniProt Q13191), the measured IC50 is 10 to 50 µM

Given the molecule Cn1cnnc1-c1cc(F)ccc1-c1cccc(-c2nc3cc(CN[C@@H]4CCC[C@]4(C)O)cc(C(F)(F)F)c3o2)c1 and test system Recombinant human Cbl-b (aa 36-427) (Homo sapiens, UniProt Q13191), the measured IC50 is < 0.2 µM

Given the molecule CC(Cc1nncn1C)c1cccc(-c2nc3ccc(OCCN4CCCC4)c(C(F)(F)F)c3[nH]2)c1 (stereo not shown) and test system Recombinant human Cbl-b (aa 36-427) (Homo sapiens, UniProt Q13191), the measured IC50 is 10 to 50 µM

Given the molecule Cc1cc(CN[C@@H]2CCC[C@@H]2O)c(F)c2nc(-c3cccc(-c4ccc(F)cc4-c4nncn4C)c3)oc12 and test system Recombinant human Cbl-b (aa 36-427) (Homo sapiens, UniProt Q13191), the measured IC50 is < 0.2 µM
